Record set: Ki | Coagulation factor X (Homo sapiens, UniProt P00742) | literature, multiple sources.
quantity.name: Ki (µM)

* COc1ccc2c(cc(C(=O)NCc3ccncc3)n2Cc2cccc(C(=N)N)c2)c1OC | 5.31

I = N=C(N)c1ccc2scc(C(CC(=O)Nc3ccc(-n4cnc5ccccc54)cc3)Cc3ccccc3)c2c1.O=C(O)C(F)(F)F (centres undefined)
II = NC(N)=NCCCC(NC(=O)[C@@H]1CCCN1C(=O)[C@H](N)C(c1ccccc1)c1ccccc1)C(=O)CCC(=O)N1CCCCC1.O=C(O)C(F)(F)F.O=C(O)C(F)(F)F (some centres undefined)
III = COc1ccc(C(=O)NC2CCN(C3CCCCC3)CC2)cc1OCCc1ccc(Cl)cc1Cl
Q: List items by Ki in falling order. List the labels according to the requested ordering.
Ans: II, III, I
